Tested on: Human breast carcinoma MCF-7 cells
Test: SRB assay
Assay type: cell-based
Conditions: MCF7, 48 hr
pIC50: −log10 of the molar value.
Listed next: entries and their corresponding pIC50.

Please review the entries below; each comes with its answer.
Cc1ccc(C)c2c1[nH]c1c(NS(=O)(=O)c3ccc(Cl)s3)cccc12
< 5.00
COc1ccc(S(=O)(=O)Nc2cccc3c2[nH]c2ccccc23)cc1 [Compound 21a]
5.36
Cc1ccc(C)c2c1[nH]c1c(N(C)S(=O)(=O)c3cccc(C(F)(F)F)c3)cccc12 [Compound 15j]
< 5.00

q: Reported pIC50, molecule Cc1ccc(C)c2c1[nH]c1c(N(C)S(=O)(=O)c3ccc(Cl)s3)cccc12 [Compound 15k] : ____
a: < 5.00

q: Reported pIC50, molecule COc1ccc(S(=O)(=O)N(c2cccc3c2[nH]c2c(C)ccc(C)c23)C(C)C)cc1 [Compound 18c] : ____
a: < 5.00

q: Name the reported pIC50 value associated with the molecule O=S(=O)(Nc1cccc2c1[nH]c1ccccc12)c1cccc(C(F)(F)F)c1 [Compound 21b]
a: < 5.00

q: Could you share which pIC50 value was measured for COc1ccc(S(=O)(=O)Nc2cccc3c2[nH]c2c(C)ccc(C)c23)cc1 ?
a: < 5.00

q: Reported pIC50, molecule Cc1ccc(C)c2c1[nH]c1c(NS(=O)(=O)c3cccc(C(F)(F)F)c3)cccc12 : ____
a: < 5.00

q: What value of pIC50 has been reported for the following molecule? CCCN(c1cccc2c1[nH]c1c(C)ccc(C)c12)S(=O)(=O)c1ccc(OC)cc1 [Compound 17c]
a: < 5.00

q: Return reported pIC50; argument: CCN(c1cccc2c1[nH]c1c(C)ccc(C)c12)S(=O)(=O)c1ccc(OC)cc1 [Compound 16c]
a: 6.10

q: // lookup pIC50 for COc1ccc(S(=O)(=O)N(C)c2cccc3c2[nH]c2c(C)ccc(C)c23)cc1 [Compound 15c]
a: < 5.00
